Hey, just so you know, these numbers are from ChEMBL document CHEMBL4196021.

system: Quadruplex DNA; assay: Binding affinity to human Bcl2 G-quadruplex DNA assessed as change in melting temperature in presence of KCl by CD spectroscopic method; type: nucleic-acid assay; note: test concentration or dose not given here
Mark N for ΔTm values under 7 °C, and Y for everything at or above.

SMILES REPR: CN(C)CCCCn1c2ccc(-c3nc4ccc(N5CCN(CCO)CC5)cc4[nH]3)cc2c2cc(-c3nc4ccc(N5CCN(CCO)CC5)cc4[nH]3)ccc21
STUDY SYSTEM: Quadruplex DNA
ASSIGNED LABEL: Y
//
SMILES REPR: CN1CCN(CCCCn2c3ccc(-c4nc5cc(N6CCN(CCO)CC6)ccc5[nH]4)cc3c3cc(-c4nc5cc(N6CCN(CCO)CC6)ccc5[nH]4)ccc32)CC1
STUDY SYSTEM: Quadruplex DNA
ASSIGNED LABEL: Y
//
SMILES REPR: CCn1c2ccc(-c3nc4ccc(N5CCN(CCO)CC5)cc4[nH]3)cc2c2cc(-c3nc4ccc(N5CCN(CCO)CC5)cc4[nH]3)ccc21
STUDY SYSTEM: Quadruplex DNA
ASSIGNED LABEL: N
//
SMILES REPR: CN1CCN(CCCCn2c3ccc(-c4nc5cc(N6CCOCC6)ccc5[nH]4)cc3c3cc(-c4nc5cc(N6CCOCC6)ccc5[nH]4)ccc32)CC1
STUDY SYSTEM: Quadruplex DNA
ASSIGNED LABEL: N
//
SMILES REPR: C[N+]1(CCCCN2CCOCC2)CCN(CCCCn2c3ccc(-c4nc5ccc(N6CCOCC6)cc5[nH]4)cc3c3cc(-c4nc5ccc(N6CCOCC6)cc5[nH]4)ccc32)CC1
STUDY SYSTEM: Quadruplex DNA
ASSIGNED LABEL: N
//
SMILES REPR: C[n+]1ccc(-c2c3nc(c(-c4cc[n+](C)cc4)c4ccc([nH]4)c(-c4cc[n+](C)cc4)c4ccc([nH]4)c(-c4cc[n+](C)cc4)c4nc2C=C4)C=C3)cc1
STUDY SYSTEM: Quadruplex DNA
ASSIGNED LABEL: Y

----------
The following molecules are listed with their measured DC50 values.
molecular target: Quadruplex DNA; experiment: Displacement of thiazole orange from human Bcl2 G-quadruplex DNA after 5 mins in presence of KCl by fluorescence assay; assay type: nucleic-acid assay
METRIC NAME: DC50

SMILES REPR: CN1CCN(CCCCn2c3ccc(-c4nc5cc(N6CCOCC6)ccc5[nH]4)cc3c3cc(-c4nc5cc(N6CCOCC6)ccc5[nH]4)ccc32)CC1
METRIC NAME: DC50
RESULT: 1.29 µM

SMILES REPR: C[N+]1(CCCCN2CCOCC2)CCN(CCCCn2c3ccc(-c4nc5ccc(N6CCOCC6)cc5[nH]4)cc3c3cc(-c4nc5ccc(N6CCOCC6)cc5[nH]4)ccc32)CC1
METRIC NAME: DC50
RESULT: > 3 µM

SMILES REPR: C[n+]1ccc(-c2c3nc(c(-c4cc[n+](C)cc4)c4ccc([nH]4)c(-c4cc[n+](C)cc4)c4nc(c(-c5cc[n+](C)cc5)c5ccc2[nH]5)C=C4)C=C3)cc1
METRIC NAME: DC50
RESULT: 0.43 µM

SMILES REPR: CN1CCN(CCCCn2c3ccc(-c4nc5cc(N6CCN(CCO)CC6)ccc5[nH]4)cc3c3cc(-c4nc5cc(N6CCN(CCO)CC6)ccc5[nH]4)ccc32)CC1
METRIC NAME: DC50
RESULT: 1.44 µM

SMILES REPR: CN(C)CCCCn1c2ccc(-c3nc4ccc(N5CCN(CCO)CC5)cc4[nH]3)cc2c2cc(-c3nc4ccc(N5CCN(CCO)CC5)cc4[nH]3)ccc21
METRIC NAME: DC50
RESULT: 1.39 µM

SMILES REPR: CCn1c2ccc(-c3nc4ccc(N5CCN(CCO)CC5)cc4[nH]3)cc2c2cc(-c3nc4ccc(N5CCN(CCO)CC5)cc4[nH]3)ccc21
METRIC NAME: DC50
RESULT: 2.86 µM

----------
system: Quadruplex DNA; assay: Binding affinity to human c-Myc G-quadruplex DNA assessed as change in melting temperature in presence of KCl by CD spectroscopic method; format: nucleic-acid assay; note: test concentration or dose not given here
METRIC NAME: ΔTm (°C)

SMILES REPR: CN(C)CCCCn1c2ccc(-c3nc4ccc(N5CCN(CCO)CC5)cc4[nH]3)cc2c2cc(-c3nc4ccc(N5CCN(CCO)CC5)cc4[nH]3)ccc21
METRIC NAME: ΔTm
RESULT: 7.35

SMILES REPR: CN1CCN(CCCCn2c3ccc(-c4nc5cc(N6CCOCC6)ccc5[nH]4)cc3c3cc(-c4nc5cc(N6CCOCC6)ccc5[nH]4)ccc32)CC1
METRIC NAME: ΔTm
RESULT: 8.65

SMILES REPR: CCn1c2ccc(-c3nc4ccc(N5CCN(CCO)CC5)cc4[nH]3)cc2c2cc(-c3nc4ccc(N5CCN(CCO)CC5)cc4[nH]3)ccc21
METRIC NAME: ΔTm
RESULT: 8.63

SMILES REPR: CN1CCN(CCCCn2c3ccc(-c4nc5cc(N6CCN(CCO)CC6)ccc5[nH]4)cc3c3cc(-c4nc5cc(N6CCN(CCO)CC6)ccc5[nH]4)ccc32)CC1
METRIC NAME: ΔTm
RESULT: 8.86

SMILES REPR: C[n+]1ccc(-c2c3nc(c(-c4cc[n+](C)cc4)c4ccc([nH]4)c(-c4cc[n+](C)cc4)c4ccc([nH]4)c(-c4cc[n+](C)cc4)c4nc2C=C4)C=C3)cc1
METRIC NAME: ΔTm
RESULT: 11

SMILES REPR: C[N+]1(CCCCN2CCOCC2)CCN(CCCCn2c3ccc(-c4nc5ccc(N6CCOCC6)cc5[nH]4)cc3c3cc(-c4nc5ccc(N6CCOCC6)cc5[nH]4)ccc32)CC1
METRIC NAME: ΔTm
RESULT: 4.95

----------
The following molecules are listed with their measured ΔTm values.
test system: Quadruplex DNA; assay: Binding affinity to human c-Kit1 G-quadruplex DNA assessed as change in melting temperature in presence of KCl by CD spectroscopic method; format: nucleic-acid assay; note: test concentration or dose not given here
METRIC NAME: ΔTm (°C)

SMILES REPR: CN(C)CCCCn1c2ccc(-c3nc4ccc(N5CCN(CCO)CC5)cc4[nH]3)cc2c2cc(-c3nc4ccc(N5CCN(CCO)CC5)cc4[nH]3)ccc21
METRIC NAME: ΔTm
MEASUREMENT UNITS: °C
RESULT: 24.7
//
SMILES REPR: CN1CCN(CCCCn2c3ccc(-c4nc5cc(N6CCOCC6)ccc5[nH]4)cc3c3cc(-c4nc5cc(N6CCOCC6)ccc5[nH]4)ccc32)CC1
METRIC NAME: ΔTm
MEASUREMENT UNITS: °C
RESULT: 12.2
//
SMILES REPR: CN1CCN(CCCCn2c3ccc(-c4nc5cc(N6CCN(CCO)CC6)ccc5[nH]4)cc3c3cc(-c4nc5cc(N6CCN(CCO)CC6)ccc5[nH]4)ccc32)CC1
METRIC NAME: ΔTm
MEASUREMENT UNITS: °C
RESULT: 25.9

----------
test system: Quadruplex DNA; test: Binding affinity to human c-Kit1 G-quadruplex DNA assessed as change in melting temperature in presence of KCl by CD spectroscopic method; format: nucleic-acid assay; note: test concentration or dose not given here
The following molecules are listed with their measured ΔTm values.
METRIC NAME: ΔTm

SMILES REPR: C[N+]1(CCCCN2CCOCC2)CCN(CCCCn2c3ccc(-c4nc5ccc(N6CCOCC6)cc5[nH]4)cc3c3cc(-c4nc5ccc(N6CCOCC6)cc5[nH]4)ccc32)CC1
RESULT: 3.58 °C
--
SMILES REPR: CCn1c2ccc(-c3nc4ccc(N5CCN(CCO)CC5)cc4[nH]3)cc2c2cc(-c3nc4ccc(N5CCN(CCO)CC5)cc4[nH]3)ccc21
RESULT: 13.2 °C
--
SMILES REPR: C[n+]1ccc(-c2c3nc(c(-c4cc[n+](C)cc4)c4ccc([nH]4)c(-c4cc[n+](C)cc4)c4ccc([nH]4)c(-c4cc[n+](C)cc4)c4nc2C=C4)C=C3)cc1
RESULT: 15.1 °C

----------
molecular target: Quadruplex DNA; test: Displacement of thiazole orange from human c-Myc G-quadruplex DNA after 5 mins in presence of KCl by fluorescence assay; type: nucleic-acid assay
The following compounds are listed with their measured DC50 values.
METRIC NAME: DC50

SMILES REPR: CCn1c2ccc(-c3nc4ccc(N5CCN(CCO)CC5)cc4[nH]3)cc2c2cc(-c3nc4ccc(N5CCN(CCO)CC5)cc4[nH]3)ccc21
RESULT: 1.63 µM
//
SMILES REPR: CN(C)CCCCn1c2ccc(-c3nc4ccc(N5CCN(CCO)CC5)cc4[nH]3)cc2c2cc(-c3nc4ccc(N5CCN(CCO)CC5)cc4[nH]3)ccc21
RESULT: 0.83 µM
//
SMILES REPR: C[n+]1ccc(-c2c3nc(c(-c4cc[n+](C)cc4)c4ccc([nH]4)c(-c4cc[n+](C)cc4)c4nc(c(-c5cc[n+](C)cc5)c5ccc2[nH]5)C=C4)C=C3)cc1
RESULT: 0.38 µM
//
SMILES REPR: CN1CCN(CCCCn2c3ccc(-c4nc5cc(N6CCOCC6)ccc5[nH]4)cc3c3cc(-c4nc5cc(N6CCOCC6)ccc5[nH]4)ccc32)CC1
RESULT: 0.85 µM
//
SMILES REPR: C[N+]1(CCCCN2CCOCC2)CCN(CCCCn2c3ccc(-c4nc5ccc(N6CCOCC6)cc5[nH]4)cc3c3cc(-c4nc5ccc(N6CCOCC6)cc5[nH]4)ccc32)CC1
RESULT: > 3 µM
//
SMILES REPR: CN1CCN(CCCCn2c3ccc(-c4nc5cc(N6CCN(CCO)CC6)ccc5[nH]4)cc3c3cc(-c4nc5cc(N6CCN(CCO)CC6)ccc5[nH]4)ccc32)CC1
RESULT: 0.98 µM
